system: frozen buccal tissue; test: Ex vivo permeation model of octreotide with permeation enhancers (Franz diffusion cell)

- MOLECULE: "CCCCCCCC/C=C\\CCCCCCCCOC(=O)C[N+](C)(C)C"
  TARGET OF ASSAY: "frozen buccal tissue"
  Average flux [ug/cm2*min]: 0.51
- MOLECULE: "CCCCCCCCCCCCCCCCOP(=O)([O-])OCC[N+](C)(C)C [reference compound]"
  TARGET OF ASSAY: "frozen buccal tissue"
  Average flux [ug/cm2*min]: 0.14
- MOLECULE: "CCCCCCCCCCCCOC(=O)C[N+](C)(C)C"
  TARGET OF ASSAY: "frozen buccal tissue"
  Average flux [ug/cm2*min]: 3.14
- MOLECULE: "CCCCCCCCCCCCCCCCOC(=O)C[N+](C)(C)C"
  TARGET OF ASSAY: "frozen buccal tissue"
  Average flux [ug/cm2*min]: 0.69
- MOLECULE: "CCCCCCCCN1CCCC1=O"
  TARGET OF ASSAY: "frozen buccal tissue"
  Average flux [ug/cm2*min]: 0.10

FYI, the data here is from patent US20190091281A1.
